All figures here come from patent US20240043505A1.

test_target: N439K
// reported binding affinity fold change relative to RBD WT per item
readout: binding affinity fold change relative to RBD WT (fold)

{"columns": ["binder", "reading"],
 "data": [
  ["Nb36 (VHH) VHH: HVQLVESGGGLVQAGGSLTLTCAASGRTFSSETMDMGWFRQAPGKEREFVAADSWNDGSTYYADSVKGRFTISRDSAKNTLYLQMNSLKPEDTAVYYCAAETYSIYEKDDSWGYWGQGTQVTVSS", 1.43],
  ["Nb105 (VHH) VHH: HVQLVESGGGLVQAGGSLRLSCAVSGRTFSTYGMAWFRQAPGKERDFVATITRSGETTLYADSVKGRFTISRDNAKNTVYLQMNSLKIEDTAVYYCAVRRDSSWGYSRDLFEYDYWGQGTQVTVSS", 1.06],
  ["Nb95 (VHH) VHH: QVQLVESGGGLVQAGGSLRLSCAASGRTFSSYSMGWFRQAQGKEREFVATINGNGRDTYYTNSVKGRFTISRDDATNTVYLQMNSLKPEDTAIYYCAADKDVYYGYTSFPNEYEYWGQGTQVTVSS", -2.19],
  ["Nb34 (VHH) VHH: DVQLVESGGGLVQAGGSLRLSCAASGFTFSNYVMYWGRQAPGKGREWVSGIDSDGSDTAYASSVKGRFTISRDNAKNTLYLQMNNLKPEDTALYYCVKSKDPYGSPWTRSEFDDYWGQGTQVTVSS", 1.18]
]}
